Listed binders paired with reported glycan array binding signal (z-score)
target.desc: Neu5Gc(a2-6)Gal(b1-4)GlcNAc
experimental.details: glycan array binding signal (z-score within array); higher = stronger binding
condition: glycan notation: IUPAC condensed, linker removed
Many of the other results were omitted from the sample, so the strongest signals are more common in it than they were.

binder: HMGB1 (Homo sapiens), P09429 (protein) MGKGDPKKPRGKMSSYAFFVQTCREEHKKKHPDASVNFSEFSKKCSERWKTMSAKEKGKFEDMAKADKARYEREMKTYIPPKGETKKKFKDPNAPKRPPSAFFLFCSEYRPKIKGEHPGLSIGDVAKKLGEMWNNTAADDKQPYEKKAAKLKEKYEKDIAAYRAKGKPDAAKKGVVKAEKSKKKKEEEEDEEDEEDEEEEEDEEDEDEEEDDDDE
glycan array binding signal (z-score): 0.015
--
binder: Arath Fbox (Arabidopsis thaliana), NP_178341.1 (protein) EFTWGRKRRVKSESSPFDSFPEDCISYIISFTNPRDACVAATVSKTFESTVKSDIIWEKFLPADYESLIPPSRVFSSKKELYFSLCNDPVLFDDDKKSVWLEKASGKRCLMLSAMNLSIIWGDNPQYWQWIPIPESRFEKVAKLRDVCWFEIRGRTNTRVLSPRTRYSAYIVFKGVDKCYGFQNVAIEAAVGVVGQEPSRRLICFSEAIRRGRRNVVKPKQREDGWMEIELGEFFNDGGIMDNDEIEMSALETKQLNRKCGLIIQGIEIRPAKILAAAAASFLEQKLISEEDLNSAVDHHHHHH
glycan array binding signal (z-score): 2.49
--
binder: AICL (Homo sapiens), Q92478 (protein) MMTKHKKCFIIVGVLITTNIITLIVKLTRDSQSLCPYDWIGFQNKCYYFSKEEGDWNSSKYNCSTQHADLTIIDNIEEMNFLRRYKCSSDHWIGLKMAKNRTGQWVDGATFTKSFGMRGSEGCAYLSDDGAATARCYTERKWICRKRIH
glycan array binding signal (z-score): -0.267
--
binder: CLL-1 (Homo sapiens) (protein) MWIDFFTYSSMSEEVTYADLQFQNSSEMEKIPEIGKFGEKAPPAPSHVWRPAALFLTLLCLLLLIGLGVLASMFHVTLKIEMKKMNKLQNISEELQRNISLQLMSNMNISNKIRNLSTTLQTIATKLCRELYSKEQEHKCKPCPRRWIWHKDSCYFLSDDVQTWQESKMACAAQNASLLKINNKNALEFIKSQSRSYDYWLGLSPEEDSTRGMRVDNIINSSAWVIRNAPDLNNMYCGYINRLYVQYYHCTYKKRMICEKMANPVQLGSTYFREA
glycan array binding signal (z-score): -0.231
--
binder: PpFlo1 (Pichia pastoris) (protein) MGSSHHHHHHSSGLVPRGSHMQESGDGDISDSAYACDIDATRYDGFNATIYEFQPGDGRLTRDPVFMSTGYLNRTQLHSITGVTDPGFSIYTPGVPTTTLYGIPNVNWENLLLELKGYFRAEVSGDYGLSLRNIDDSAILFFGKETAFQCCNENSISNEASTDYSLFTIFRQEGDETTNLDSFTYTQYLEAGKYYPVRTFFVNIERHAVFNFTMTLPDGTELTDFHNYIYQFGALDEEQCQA
glycan array binding signal (z-score): 0
--
binder: SP16663B-bot-321-25-321 (Bacteroides ovatus) (protein) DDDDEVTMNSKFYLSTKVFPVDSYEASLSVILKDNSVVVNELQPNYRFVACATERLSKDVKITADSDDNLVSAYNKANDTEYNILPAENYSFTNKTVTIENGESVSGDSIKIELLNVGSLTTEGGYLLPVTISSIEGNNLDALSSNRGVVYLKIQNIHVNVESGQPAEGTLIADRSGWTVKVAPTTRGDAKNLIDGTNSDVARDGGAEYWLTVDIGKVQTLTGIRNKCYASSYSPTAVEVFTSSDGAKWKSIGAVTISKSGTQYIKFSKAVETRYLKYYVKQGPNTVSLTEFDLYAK
glycan array binding signal (z-score): 0.696
--
binder: Jacalin (Artocarpus integrifolia) (protein) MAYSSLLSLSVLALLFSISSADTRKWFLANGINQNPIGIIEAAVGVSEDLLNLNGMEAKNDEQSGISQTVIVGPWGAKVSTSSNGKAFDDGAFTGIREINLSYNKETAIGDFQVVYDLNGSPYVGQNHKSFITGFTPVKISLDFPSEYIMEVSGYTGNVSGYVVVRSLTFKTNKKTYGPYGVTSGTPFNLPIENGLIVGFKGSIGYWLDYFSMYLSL
glycan array binding signal (z-score): -0.247
--
binder: LICBM33A (Lactococcus lactis), Q9CE94 (protein) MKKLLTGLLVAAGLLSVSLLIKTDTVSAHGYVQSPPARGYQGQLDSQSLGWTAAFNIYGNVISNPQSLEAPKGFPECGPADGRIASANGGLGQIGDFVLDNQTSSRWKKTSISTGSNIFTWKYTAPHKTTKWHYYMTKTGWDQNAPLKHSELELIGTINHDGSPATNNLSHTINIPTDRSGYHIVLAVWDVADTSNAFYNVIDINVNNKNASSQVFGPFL
glycan array binding signal (z-score): -0.606
--
binder: ACA (Amaranthus caudatus) (protein) MAGLPVIMCLKSNNNQKYLRYQSDNIQQYGLLQFSADKILDPLAQFEVEPSKTYDGLVHIKSRYTNKYLVRWSPNHYWITASANEPDENKSNWACTLFKPLYVEEGNMKKVRLLHVQLGHYTQNYTVGGSFVSYLFAESSQIDTGSKDVFHVIDWKSIFQFPKRYVTFKGNNGKYLGVITINQLPCLQFGYDNLNDPKVAHEMFVTSNGTICIKSTYMNKFWRLSTDDWILVDGNDPRETNEAAALFRSDVHDFNVISLLNMQKTWFIKRFTSGKPGFINCMNAATQNVDETAILEIIELGSNN
glycan array binding signal (z-score): -0.372
--
binder: CD23 (Homo sapiens) (protein) MELQVSSGFVCNTCPEKWINFQRKCYYFGKGTKQWVHARYACDDMEGQLVSIHSPEEQDFLTKHASHTGSWIGLRNLDLKGEFIWVDGSHVDYSNWAPGEPTSRSQGEDCVMMRGSGRWNDAFCDRKLGAWVCDRLATCTPPASEGSAESMGPDSRPDPDGRLPTPSAPLHS
glycan array binding signal (z-score): -0.645
--
binder: LlpA (Arthrobacter sp) (protein) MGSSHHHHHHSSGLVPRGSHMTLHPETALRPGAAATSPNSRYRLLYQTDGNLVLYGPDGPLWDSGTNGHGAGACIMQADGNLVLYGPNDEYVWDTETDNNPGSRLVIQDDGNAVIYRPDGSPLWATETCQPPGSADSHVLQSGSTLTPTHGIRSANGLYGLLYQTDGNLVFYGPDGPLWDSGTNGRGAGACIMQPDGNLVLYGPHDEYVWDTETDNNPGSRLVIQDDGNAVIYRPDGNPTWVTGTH
glycan array binding signal (z-score): -0.005
